B1: F1*; the commonest letter at each place (parent)
chain: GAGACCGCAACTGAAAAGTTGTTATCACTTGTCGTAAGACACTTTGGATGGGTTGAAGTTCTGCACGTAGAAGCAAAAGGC

Variants of: B1
Assay: fraction ligated after 30 min (ligated reads / total reads); higher = more ligase activity
Details: with F1*sub RNA substrate (template-directed ligation), 42 °C
measurement.type: fraction ligated

As a guide, the following entries are already answered.
T25C C26T; 0.813
G47T G55A; 0.0777
T30C G31C T32G A39C C40G A41G; 0.862
C40A A48G; 0.739
T23G A57C; 0.779

Query: Please give the measured fraction ligated for this variant: T29A A37T
Response: 0.848

Query: Value lookup for fraction ligated; key = G38C A56T
Response: 0.813

Query: Record request: fraction ligated value, item T35A A48T
Response: 0.8

Query: Returns the measured fraction ligated for the input variant. Input: T32A A57C
Response: 0.821

Query: Item T43C G47A has what recorded fraction ligated?
Response: 0.767

Query: Report fraction ligated for G34C G47C please.
Response: 0.365

Query: For C26T G55A , what is its reported fraction ligated?
Response: 0.811

Query: Using the record for A24C T30G , report its fraction ligated.
Response: 0.57

Query: Consider the variant T49A G50T and give its measured fraction ligated.
Response: 0.769

Query: Which fraction ligated value belongs to T25C G31T ?
Response: 0.546

Query: I have this variant here, A27T T32G , and I need its recorded fraction ligated.
Response: 0.838
